Reported values of Ki for individual entries
# Target Under Test: Substance-K receptor (Homo sapiens)
# Sequence (P21452 whole entry): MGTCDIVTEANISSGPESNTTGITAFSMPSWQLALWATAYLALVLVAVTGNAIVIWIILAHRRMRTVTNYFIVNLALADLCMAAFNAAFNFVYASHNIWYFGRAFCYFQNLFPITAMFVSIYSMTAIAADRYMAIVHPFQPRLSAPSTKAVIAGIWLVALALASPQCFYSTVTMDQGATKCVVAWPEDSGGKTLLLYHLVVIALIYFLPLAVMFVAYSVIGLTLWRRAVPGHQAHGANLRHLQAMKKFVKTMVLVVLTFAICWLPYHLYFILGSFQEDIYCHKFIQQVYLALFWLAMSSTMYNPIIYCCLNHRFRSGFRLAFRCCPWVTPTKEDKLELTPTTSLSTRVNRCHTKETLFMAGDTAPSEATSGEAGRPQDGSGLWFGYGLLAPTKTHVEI
# Protocol Description: Binding affinity test against Neurokinin 2 (NK2) receptor
Kindly answer with a numeric value in µM, unit omitted.

Sample answers from the record:
{"Compound": "CO/N=C(\\CN(C)C(=O)c1cc(OC)cc(OC)c1)C(CCN1CCC(O)(c2ccccc2)CC1)c1ccc(Cl)c(Cl)c1 (configuration not stated)", "Target Under Test": "Substance-K receptor (Homo sapiens)", "Observation Type": "Ki", "Measurement": 0.002}
{"Compound": "CO/N=C(\\COCc1ccccc1C)C(CCN1CCC(O)(c2ccccc2)CC1)c1ccc(Cl)c(Cl)c1 (configuration not stated)", "Target Under Test": "Substance-K receptor (Homo sapiens)", "Observation Type": "Ki", "Measurement": 0.136}
{"Compound": "CO/N=C(\\C(=O)N(C)Cc1cc(C(F)(F)F)cc(C(F)(F)F)c1)C(CCN1CCC(O)(c2ccccc2)CC1)c1ccc(Cl)c(Cl)c1 (configuration not stated)", "Target Under Test": "Substance-K receptor (Homo sapiens)", "Observation Type": "Ki", "Measurement": 0.167}
{"Compound": "CO/N=C(\\C(C)OCc1cc(C(F)(F)F)cc(C(F)(F)F)c1)C(CCN1CCC(O)(c2ccccc2)CC1)c1ccc(Cl)c(Cl)c1 (configuration not stated)", "Target Under Test": "Substance-K receptor (Homo sapiens)", "Observation Type": "Ki", "Measurement": 0.157}

Given CO/N=C(\CN(C)C(=O)c1cncc(Br)c1)C(CCN1CCC(O)(c2ccccc2)CC1)c1ccc(Cl)c(Cl)c1 (configuration not stated) , state its recorded Ki.
0.004

Given CO/N=C(\COCc1ccc(-c2ccccc2)cc1)C(CCN1CCC(O)(c2ccccc2)CC1)c1ccc(Cl)c(Cl)c1 (configuration not stated) , state its recorded Ki.
0.038

Given CO/N=C(\COCc1cc(C)cc(C)c1)C(CCN1CCC(O)(c2ccccc2)CC1)c1ccc(Cl)c(Cl)c1 (configuration not stated) , state its recorded Ki.
0.008
